- assay.comment: Stability in pH 7.4 buffer (no enzyme)
- Type: physicochemical
- condition.info: HEPES buffer without enzyme, read-out: T1/2 pH 7.4 Buffer
- From the text: The human intestinal S9 with the absence of PMSF, human liver S9, rat intestinal S9, and rat liver S9 preparations were obtained from Xenotech (Lenexa, Kans.). […] A Waters Atlantis T3 (3 μm, 3.0×50 mm) column was used for separation. […] For the prodrug analysis, the Multiple Reaction Monitoring (MRM) specific for each compound was set up so that both prodrug and its hydrolyzed active can be monitored simultaneously. […]
reported.metric: half-life at 10 μM (h)

Any idea what half-life at 10 μM was measured for `CCCCCOC(=O)[C@@H](F)ON1C(=O)N2C[C@H]1C=C(C)[C@H]2C(N)=O` ?
1.25

[I] CCCCCCOC(=O)[C@@H](F)ON1C(=O)N2C[C@H]1C=C(C)[C@H]2C(N)=O
[II] CC1=C[C@@H]2CN(C(=O)N2O[C@H](F)C(=O)OC(C)OC(=O)OC(C)C)[C@@H]1C(N)=O (stereo partly shown)
Of I and II , which carries the smaller reported half-life at 10 μM figure? Your answer should be the label attached to the chosen record.
II

----------
- System: Klebsiella pneumoniae SHV-18, OXA-2, OKP-6 (ATCC 700603)
- assay.comment: MIC, CLSI broth microdilution, beta-lactam with or without BLI
- Type: cell-based
- condition.info: BLI at fixed 4 μg/ml; K. pneumoniae ATCC 700603
Counter-ions that a name gives are not always drawn.
reported.metric: MIC of cefixime in presence of BLI (mg/L)
Lab book: enter the figure in mg/L, no units written.

Any idea what MIC of cefixime in presence of BLI was measured for CC1=C[C@@H](C(N)=O)N2C[C@@H]1N(OCC(=O)O)C2=O [Example 93, lithium salt] ?
0.125

Any idea what MIC of cefixime in presence of BLI was measured for CC1=C[C@@H]2CN(C(=O)N2O[C@@H](F)C(=O)O)[C@@H]1C(N)=O [Example 3, lithium salt] ?
0.5

----------
- assay.comment: Stability/conversion of esters in human liver S9
- Assay type: in vitro ADME
- condition.info: liver S9, pH 7.4, read-out: T1/2 Human Liver S9
- Text: The human intestinal S9 with the absence of PMSF, human liver S9, rat intestinal S9, and rat liver S9 preparations were obtained from Xenotech (Lenexa, Kans.). […] A Waters Atlantis T3 (3 μm, 3.0×50 mm) column was used for separation. […] For the prodrug analysis, the Multiple Reaction Monitoring (MRM) specific for each compound was set up so that both prodrug and its hydrolyzed active can be monitored simultaneously. […]
reported.metric: half-life at 10 μM (min)

Examples from the recorded data:
Any idea what half-life at 10 μM was measured for C=CCOC(=O)[C@@H](F)ON1C(=O)N2C[C@H]1C=C(C)[C@H]2C(N)=O [Example 47] ?
2.3

Any idea what half-life at 10 μM was measured for CCOC(=O)[C@@H](F)ON1C(=O)N2C[C@H]1C=C(C)[C@H]2C(=O)NCO [Example 86] ?
24

[a] CCOC(=O)[C@H](F)ON1C(=O)N2C[C@H]1C=C(C)[C@H]2C(=O)NCO [Example 85]
[b] CCCCCOC(=O)[C@@H](F)ON1C(=O)N2C[C@H]1C=C(C)[C@H]2C(N)=O [Example 51]
Out of a and b , name the one with the higher half-life at 10 μM. Your answer should be the label attached to the chosen record.
b
(b: 6.4 min, a: 3.5 min)
